- Procedure Summary: drug combination growth inhibition, ovarian cancer – cell-based, oncology-focused library, rucaparib conditional, profiling panel (AID 1508598)
- Test Conditions: patient-derived ovarian cancer cells, CellTiter-Glo viability, 144 h; at 0.313 µM; OCI-C5x cells; without rucaparib
The source made the active and inactive calls.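 Rule for the calls: active = normalized viability below 100% at a tested concentration; inactive = the rest.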
Can you answer with just one of these options? active, inactive

Query: Would you mind telling me which call this test gave CCC(C)n1ncn(-c2ccc(N3CCN(c4ccc(OC[C@H]5CO[C@](Cn6cncn6)(c6ccc(Cl)cc6Cl)O5)cc4)CC3)cc2)c1=O (stereo partly drawn) ?
Result: inactive

Query: Would you mind telling me which call this test gave COc1cc2c(Nc3ccc(Br)cc3F)ncnc2cc1OCC1CCN(C)CC1 ?
Result: inactive

Query: Would you mind telling me which call this test gave Cc1cc2c(C(C)C)c(O)c(O)c(C=O)c2c(O)c1-c1c(C)cc2c(C(C)C)c(O)c(O)c(C=O)c2c1O ?
Result: inactive

Query: Would you mind telling me which call this test gave COC(=O)Nc1nc2ccc(C(=O)c3cccs3)cc2[nH]1 ?
Result: active

Query: Would you mind telling me which call this test gave O=c1c(O)c(-c2ccc(O)c(O)c2)oc2cc(O)cc(O)c12 ?
Result: inactive

Query: Would you mind telling me which call this test gave N#Cc1ccc(C(c2ccc(C#N)cc2)n2cncn2)cc1 ?
Result: inactive

Query: Would you mind telling me which call this test gave CC(C)(C#N)c1cc(Cn2cncn2)cc(C(C)(C)C#N)c1 ?
Result: inactive

Query: Would you mind telling me which call this test gave O=NN(CCCl)C(=O)NC1CCCCC1 ?
Result: inactive
